Assay: Phase 1 study in healthy human volunteers, plasma pharmacokinetics
Type: in vivo
Settings: both sexes, human, single dose 150 mg, oral solution, fasted healthy subjects, read-out: t1/2 (hr) AVE ± SD (converted)
Description: The study is divided into two phases (Single and Multiple Dose Phases). One cohort in the Multiple Dose Phase receives twice daily dosing. Placebo solution to match. The finished aqueous solution is prepared in the clinical study site pharmacy within 24 hours of dosing. The study drug is stored at room temperature between 15-30° C. (59-86° F.) and protected from light. Route of Administration: All doses are administered orally with approximately 100 mL of water rinse. […]
reported.property: half-life (h)
One number for each entry, in h.

Looking up `COc1ccc(-c2ccc(Cn3c(CC(C)(C)C(=O)O)c(SC(C)(C)C)c4cc(OCc5ccccn5)ccc43)cc2)cn1` , I found its half-life recorded as 10

====

assay: in vivo; set-up: species or system female Beagle dogs; conditions: female, Beagle, dog, iv, 2 mg/kg
reported.property: AUC(0-inf) (ng·h/mL)
Numbers only, in ng·h/mL.

Looking up `COc1ccc(-c2ccc(Cn3c(CC(C)(C)C(=O)O)c(SC(C)(C)C)c4cc(OCc5ccccn5)ccc43)cc2)cn1` , I found its AUC(0-inf) recorded as 11900

====

target: UniProt P08684; assay: biochemical
Sequence (P08684 whole entry): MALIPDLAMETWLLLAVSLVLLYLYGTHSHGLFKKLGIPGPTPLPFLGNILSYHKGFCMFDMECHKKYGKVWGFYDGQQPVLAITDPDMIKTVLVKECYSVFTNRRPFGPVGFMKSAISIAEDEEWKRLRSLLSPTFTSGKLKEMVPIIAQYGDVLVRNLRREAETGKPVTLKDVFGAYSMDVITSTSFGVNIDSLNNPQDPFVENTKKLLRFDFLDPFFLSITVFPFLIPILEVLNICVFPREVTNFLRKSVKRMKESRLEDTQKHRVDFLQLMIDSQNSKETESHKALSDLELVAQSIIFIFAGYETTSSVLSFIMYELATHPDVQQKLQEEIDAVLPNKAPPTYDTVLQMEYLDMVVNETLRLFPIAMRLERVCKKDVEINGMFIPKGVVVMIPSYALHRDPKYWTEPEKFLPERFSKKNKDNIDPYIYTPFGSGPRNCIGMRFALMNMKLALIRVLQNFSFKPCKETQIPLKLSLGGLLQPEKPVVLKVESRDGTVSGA
reported.property: IC50

Looking up `COc1ccc(-c2ccc(Cn3c(CC(C)(C)C(=O)O)c(SC(C)(C)C)c4cc(OCc5ccccn5)ccc43)cc2)cn1` , I found its IC50 recorded as > 50 µM

====

experiment: Phase 1 study in healthy human volunteers, plasma pharmacokinetics; type: in vivo; conditions: both sexes, human, single dose 1000 mg, oral solution, fasted healthy subjects, read-out: Cmax (mM) AVE ± SD
reported.property: Cmax (mM)
Give bare numbers, in mM.

Looking up `COc1ccc(-c2ccc(Cn3c(CC(C)(C)C(=O)O)c(SC(C)(C)C)c4cc(OCc5ccccn5)ccc43)cc2)cn1` , I found its Cmax recorded as 0.013

====

assay: Solubility in organic solvents; format: physicochemical; details: 25 °C, organic solvent or mixture; Form C; Isopropanol; read-out: Solubility, mg/mL at 25° C.
reported.property: solubility (mg/mL)
Numbers only, in mg/mL.

Looking up `COc1ccc(-c2ccc(Cn3c(CC(C)(C)C(=O)O)c(SC(C)(C)C)c4cc(OCc5ccccn5)ccc43)cc2)cn1` , I found its solubility recorded as 1.1

====

test: pH solubility profile; format: physicochemical; conditions: basic media, 25 °C, pH 10, aqueous buffer, thermodynamic from solid; read-out: solubility in basic media
reported.property: solubility

Looking up `COc1ccc(-c2ccc(Cn3c(CC(C)(C)C(=O)O)c(SC(C)(C)C)c4cc(OCc5ccccn5)ccc43)cc2)cn1` , I found its solubility recorded as > 70 mg/mL

====

assay: pH solubility profile; type: physicochemical; details: aqueous medium, 25 °C, aqueous buffer, thermodynamic from solid; about pH 7; read-out: aqueous solubility
reported.property: solubility

Looking up `COc1ccc(-c2ccc(Cn3c(CC(C)(C)C(=O)O)c(SC(C)(C)C)c4cc(OCc5ccccn5)ccc43)cc2)cn1` , I found its solubility recorded as < 5 µg/mL

====

assay: Phase 1 study in healthy human volunteers, plasma pharmacokinetics; format: in vivo; conditions: both sexes, human, single dose 50 mg, oral solution, fasted healthy subjects, read-out: AUC0-24 (hr * mM) AVE ± SD
reported.property: AUC(0-t) (µM·h)
Numbers only, in µM·h.

Looking up `COc1ccc(-c2ccc(Cn3c(CC(C)(C)C(=O)O)c(SC(C)(C)C)c4cc(OCc5ccccn5)ccc43)cc2)cn1` , I found its AUC(0-t) recorded as 5.4
